IC50 (µg/mL), pseudovirus neutralization: recorded values
Molecular target: HIV-1 94UG103 Env (pseudovirus) (HIV-1 isolate 94UG103)
Assay: cell-based or functional assay

Worked cases, IC50 (µg/mL), pseudovirus neutralization given:
# binder, IC50 (µg/mL), pseudovirus neutralization
data = [
    ("1456_P20 (PG20) (antibody, human IgG1, kappa, V domains shown) VH: QVRLVQSGPEVKKPGSSVTVSCQASGGTFSSYAFTWVRQAPGQGLEWLGMVTPIFGEAKYSQRFEGRVTITADESTSTTSIELRGLTSEDTAIYYCARDRRAVPIATDNWLDPWGQGTLVTVSS VL: DIQLTQSPSSLSASVGDRVSITCRASQTINNYLNWYQQTPGKAPKLLIYGASNLQNGVPSRFSGSGSGTDFTLTISSLQPEDFATYYCQQSFSTPRTFGQGTRLDIKR", "> 50 µg/mL"),
    ("1496_C09 (PG9) (TCN-109) (antibody, V domains shown) VH: QRLVESGGGVVQPGSSLRLSCAASGFDFSRQGMHWVRQAPGQGLEWVAFIKYDGSEKYHADSVWGRLSISRDNSKDTLYLQMNSLRVEDTATYFCVREAGGPDYRNGYNYYDFYDGYYNYHYMDVWGKGTTVTVSS VL: QSALTQPASVSGSPGQSITISCNGTSNDVGGYESVSWYQQHPGKAPKVVIYDVSKRPSGVSNRFSGSKSGNTASLTISGLQAEDEGDYYCKSLTSTRRRVFGTGTKLTVLG", "0.17 µg/mL"),
    ("1495_C14 (PGC14) (antibody, human IgG1, lambda, V domains shown) VH: DGHLVQSGVEVKKTGATVKISCKVSGYSFIDYYLHWVQRAPGKGLEWVGLIDPENGEARYAEKFQGRVTIIADTSIDTGYMEMRSLKSEDTAVYFCAAGAVGADSGSWFDPWGQGTLVTVSS VL: SYELTQPPSVSVSPGQTASITCSGSKLGDKYVSWYQLRPGQSPILVMYENDRRPSGIPERFSGSNSGDTATLTISGTQALDEADFYCQAWETTTTTFVFFGGGTQLTVLG", "> 50 µg/mL"),
]

Please turn your attention to the following entry.
Problem: Consider the binder shown here: 1460_G14 (PGG14) (antibody, human IgG1, kappa, V domains shown) VH: QVLLVQSGTEVKKPGSSVKVSCQASGGAFSSYAFSWVRQAPGQGLEWMGMITPVFGETKYAPRFQGRLTLTAEESLSTTYMELRSLTSDDTAFYYCTRDRRVVPMATDNWLDPWGQGTLVTVSS VL: DIQLTQSPSSLSASVGDRVTVTCRASQTIHTYLNWYQQIPGKAPKLLIYGASTLQSGVPSRFSGSGSGTDFTLTINSLQPEDFATYYCQQSYSTPRTFGQGTRLDIKR What is its recorded IC50 (µg/mL), pseudovirus neutralization?
Solution: > 50 µg/mL
